test system: Plasmodium falciparum; experiment: GSK_TCMDC: Inhibition of Plasmodium falciparum 3D7 in whole red blood cells, using parasite LDH activity as an index of growth. Test compounds present at 2uM; type: functional
Inhibition for assorted compounds
Just the number please, in %, no unit attached.

Some compounds with known Inhibition results, for comparison:
{"columns": ["Compound", "Inhibition [%]"],
 "data": [
  ["COc1ccc(OC)c(Cc2cnc3nc(N)nc(N)c3c2C)c1 [PIRITREXIM]", 92],
  ["CN(Cc1ccccc1)C1CCN(c2cc(NC(=O)c3cccc(F)c3)ccn2)CC1.O=C(O)C(F)(F)F", 93],
  ["CS(=O)(=O)Nc1ccc2[nH]cc(C3CCN(CC4CCC(NC(=O)/C=C/c5ccc(Cl)c(Cl)c5)CC4)CC3)c2n1 (centres undefined)", 99],
  ["CC(=O)Nc1ncc(C(=O)Nc2ccc(-c3cccc(-c4nc5cc(F)ccc5[nH]4)c3)cc2)s1", 100],
  ["CCC[C@@H]([C@@H](CC1CCCCC1)C(=O)N[C@H](C(=O)Nc1nccs1)[C@@H](C)OCc1ccccc1)N(O)C=O", 100]
]}

Prompt: Supply recorded Inhibition for CCOc1ccc(C(C)NC(=O)Nc2ccccc2)cc1OCC (centres undefined) here.
Response: 96

Prompt: Supply recorded Inhibition for `O=C(Nc1ccc(Cl)c(C(F)(F)F)c1)Nc1ccc(Cl)c(C(F)(F)F)c1` here.
Response: 94

Prompt: Supply recorded Inhibition for `O=C(c1cc(C(=O)Nc2ccccc2F)c(=O)n(-c2ccccc2F)c1)c1cc(Cl)ccc1O` here.
Response: 98

Prompt: Supply recorded Inhibition for `CN1CCN(CCCN(Cc2cccc(-c3ccc(CNC4CCCC4)cc3)c2)C(=O)CCC2CCCC2)CC1.O=C(O)C(F)(F)F` here.
Response: 97
